Source: ChEMBL document CHEMBL4052704

target: UniProt Q8TDV5; experiment: Agonist activity at human GPR119 expressed in CHOK1 cells co-expressing CRE-luciferase incubated for 4 hrs by luciferase reporter gene assay; assay type: functional, cell-based; settings: read-out: EC50
metric: pEC50
Would you please state pEC50, meaning minus log10 of the concentration in mol/L, as a bare number?

# get_value(readout='pEC50', item= CS(=O)(=O)c1ccc2c(c1)CCN2c1ncnc2c(C3CCN(c4ncccn4)CC3)coc12 )
6.29

Do the same for CS(=O)(=O)c1ccc2c(c1)CCN2c1ncnc2c(C3CCN(c4ncc(O)cn4)CC3)coc12 please
6.41

Do the same for CC(O)c1cnc(N2CCC(c3coc4c(N5CCc6cc(S(C)(=O)=O)ccc65)ncnc34)CC2)nc1 (stereo not drawn) please
6.23

Do the same for CC(=O)c1cnc(N2CCC(c3coc4c(N5CCc6cc(S(C)(=O)=O)ccc65)ncnc34)CC2)nc1 please
7.11

Do the same for COc1cnc(N2CCC(c3coc4c(N5CCc6cc(S(C)(=O)=O)ccc65)ncnc34)CC2)nc1 please
6.51

Do the same for CC(C)(C)OC(=O)N1CCC(c2noc3c(Nc4ccc(S(C)(=O)=O)cc4F)ncnc23)CC1 please
6.45

* * *

Biological target: Glucose-dependent insulinotropic receptor (Homo sapiens)
Sequence (whole entry): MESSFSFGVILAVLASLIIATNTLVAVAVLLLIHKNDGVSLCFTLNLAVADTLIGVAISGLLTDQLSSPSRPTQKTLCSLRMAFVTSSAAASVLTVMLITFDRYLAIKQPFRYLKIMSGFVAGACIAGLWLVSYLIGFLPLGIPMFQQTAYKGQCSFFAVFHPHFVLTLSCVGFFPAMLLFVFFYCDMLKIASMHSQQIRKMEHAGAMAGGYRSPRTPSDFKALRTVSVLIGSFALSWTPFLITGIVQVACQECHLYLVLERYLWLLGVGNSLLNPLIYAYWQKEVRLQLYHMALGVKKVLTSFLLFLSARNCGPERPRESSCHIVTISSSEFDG
Assay: Agonist activity at human GPR119 expressed in CHOK1 cells co-expressing CRE-luciferase incubated for 4 hrs by luciferase reporter gene assay relative to 100 nM AR231453
Assay type: functional, cell-based
metric: Emax (%)
Report the value in % with no unit label.

# get_value(readout='Emax', item= CS(=O)(=O)c1ccc2c(c1)CCN2c1ncnc2c(C3CCN(c4ncc(F)cn4)CC3)coc12 )
229

Do the same for CC(=O)c1cnc(N2CCC(c3coc4c(N5CCc6cc(S(C)(=O)=O)ccc65)ncnc34)CC2)nc1 please
12

Do the same for CC(C)(C)OC(=O)N1CCC(c2coc3c(Nc4ccc(S(C)(=O)=O)cc4F)ncnc23)CC1 please
123

Do the same for CC(C)(C)OC(=O)N1CCC(c2coc3c(N4CCc5cc(S(C)(=O)=O)ccc54)ncnc23)CC1 please
123

Do the same for CS(=O)(=O)c1ccc2c(c1)CCN2c1ncnc2c(C3CCN(c4ncc(Cl)cn4)CC3)coc12 please
117

Do the same for Cn1cc(C2CCN(C(=O)OC(C)(C)C)CC2)c2ncnc(Nc3ccc(S(C)(=O)=O)cc3F)c21 please
3

Do the same for CC(C)(C)OC(=O)N1CCC(c2noc3c(Nc4ccc(S(C)(=O)=O)cc4F)ncnc23)CC1 please
137

Do the same for CC(C)(C)OC(=O)N1CCC(c2coc3c(N4CCCc5cc(S(C)(=O)=O)ccc54)ncnc23)CC1 please
1

* * *

target: Glucose-dependent insulinotropic receptor (Homo sapiens, UniProt Q8TDV5); test: Agonist activity at human GPR119 expressed in HEK293 cells by luciferase reporter gene assay; format: cell-based
So I've got a bunch of molecules here, and I need their EC50 values.

# get_value(readout='EC50', item= CC(C)(C)OC(=O)N1CCC(n2nnc3c(Nc4ccc(S(C)(=O)=O)cc4F)ncnc32)CC1 )
19 nM

Do the same for CCCc1cnc(N2CCC(n3nnc4c(Nc5ccc(S(C)(=O)=O)cc5F)ncnc43)CC2)nc1 please
82 nM

* * *

So I've got a bunch of compounds here, and I need their microsomal CLint values.
assay: Clearance in mouse liver microsomes; format: ADME, microsome; settings: read-out: CLH
Report the value in µL/min/mg with no unit label.

# get_value(readout='microsomal CLint', item= CC(C)(C)OC(=O)N1CCC(c2coc3c(N4CCc5cc(S(C)(=O)=O)ccc54)ncnc23)CC1 )
508

Do the same for CCc1cnc(N2CCC(c3coc4c(N5CCc6cc(S(C)(=O)=O)ccc65)ncnc34)CC2)nc1 please
187

Do the same for CC(O)c1cnc(N2CCC(c3coc4c(N5CCc6cc(S(C)(=O)=O)ccc65)ncnc34)CC2)nc1 (centres undefined) please
66

Do the same for Cc1cnc(N2CCC(c3coc4c(N5CCc6cc(S(C)(=O)=O)ccc65)ncnc34)CC2)nc1 please
145

* * *

test: Oral bioavailability in mouse at 10 mg/kg; assay type: ADME, organism-based; settings: in vivo
metric: bioavailability (%)
Report the value in % with no unit label.

# get_value(readout='bioavailability', item= CS(=O)(=O)c1ccc2c(c1)CCN2c1ncnc2c(C3CCN(c4ncc(Cl)cn4)CC3)coc12 )
37

* * *

So I've got a bunch of compounds here, and I need their EC50 values.
biological target: Glucose-dependent insulinotropic receptor (Homo sapiens); assay: Agonist activity at human GPR119 expressed in CHOK1 cells co-expressing CRE-luciferase incubated for 4 hrs by luciferase reporter gene assay; assay type: functional, cell-based; conditions: read-out: EC50
Report the value in nM with no unit label.

# get_value(readout='EC50', item= CS(=O)(=O)c1ccc2c(c1)CCN2c1ncnc2c(C3CCN(c4ncc(F)cn4)CC3)coc12 )
201

Do the same for CCc1cnc(N2CCC(c3coc4c(N5CCc6cc(S(C)(=O)=O)ccc65)ncnc34)CC2)nc1 please
41

Do the same for Cc1cnc(N2CCC(c3coc4c(N5CCc6cc(S(C)(=O)=O)ccc65)ncnc34)CC2)nc1 please
252
